experiment.notes: chemical genetic growth profiling, strain panel (AID 1159580);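 note: tested at 20 µM; growth read once vehicle control cultures reached saturation at 30 °C; 1 = growth at the plate median or of vehicle wells; lower values mean less growth of the strain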
condition: S. cerevisiae deletion strains, growth OD, locus YJL187C, strain SWE1 (second series), hits give low values
Out of some 5,500 compounds screened, about 2,000 (36%) were called active. Another 18% or so got no clear call; they are omitted. Some of the results follow.
# note: boundary value 1 maps to Not met; normalized growth below it maps to Met

// known answers, use as guide
>>> cat("CC1(C)CC2C1CCC1(C)OC2(C)CCC1O (stereo unspecified)")
"Not met"
>>> cat("CC12CCCC(O)(C1)C1CC(C)(C)C1CC2 (stereo unspecified)")
"Not met"
>>> cat("C=CCN1CC[C@]23c4c5ccc(O)c4OC2C(=O)CC[C@@]3(O)[C@H]1C5 (stereo partly specified)")
"Not met"
>>> cat("CC(C)C1=CC2=CCC3[C@](C)(CCC[C@]3(C)C(=O)O)C2CC1 (stereo partly specified)")
"Met"

## Input Strictly below 1 in normalized growth? `Nc1nccs1`
## Output Met

## Input Strictly below 1 in normalized growth? CC(COc1ccccc1)N(CCCl)Cc1ccccc1 (stereo unspecified)
## Output Not met

## Input Strictly below 1 in normalized growth? `COc1ccc2c(c1O)-c1c(OC)c(OC)cc3c1[C@H](C2)N(C)CC3`
## Output Not met

---

Reported normalized growth is given for each of the following compounds.
experiment.notes: chemical genetic growth profiling, strain panel (AID 1159580);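 note: tested at 20 µM; growth read once vehicle control cultures reached saturation at 30 °C; 1 = growth at the plate median or of vehicle wells; lower values mean less growth of the strain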
condition: S. cerevisiae deletion strains, growth OD, locus YBR135W, strain CKS1, hits give low values
The campaign covered roughly 5,500 compounds. About 2,000 (36%) were called active. Inconclusive results (about 18%) are left out. The list shows a part of the results.
Give the value as a plain number.

Look over these answered cases.
>>> recorded_value("CSc1cccc(N2C(=O)CC(c3c(Cl)cccc3Cl)CC2=O)c1")
0.987
>>> recorded_value("O=C(NCc1ccco1)c1csc(C2COc3ccccc3O2)n1 (stereo unspecified)")
0.918
>>> recorded_value("COCCOc1ccccc1NC(=S)SCCSC(=S)Nc1ccccc1OCCOC")
0.978
>>> recorded_value("Cc1nc(C(F)(F)F)c(C(=O)O/N=C(/N)c2ccc(Cl)cc2)s1")
0.98
>>> recorded_value("CCOC(=O)c1c(N=Cc2cc(Br)c(Br)cc2O)sc2c1CCCC2")
0.968

Kindly consider the entry below.
## Input Provide one value: measured normalized growth of `O=C(Nc1ccc(Cl)cc1Cl)c1cnccc1C(F)(F)F`
## Output 0.981

---

experiment.notes: chemical genetic growth profiling, strain panel (AID 1159580);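 note: tested at 20 µM; growth read once vehicle control cultures reached saturation at 30 °C; 1 = growth at the plate median or of vehicle wells; lower values mean less growth of the strain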
condition: S. cerevisiae deletion strains, growth OD, locus YMR277W, strain FCP1, hits give low values
Screen size: about 5,500 compounds; about 2,000 (36%) were called active. Inconclusive results (about 18%) are left out. This is one part of the list.
experimental.readout: normalized growth
Give the value as a plain number.

Look over these answered cases.
>>> recorded_value("N/C(=N/OC(=O)c1ccc(Cl)cc1)c1ccc(F)cc1F")
0.881
>>> recorded_value("Cc1cc(C(=O)O/N=C(/N)c2ccc([N+](=O)[O-])o2)no1")
0.941
>>> recorded_value("O=C(Nc1cccc(C(F)(F)F)c1)Oc1ccc(F)cc1Cl")
0.977

## Input Provide one value: measured normalized growth of `Cc1nc(C(F)(F)F)c(C(=O)O/N=C(/N)c2ccc(Cl)cc2)s1`
## Output 0.974

## Input Provide one value: measured normalized growth of `CC1(C)C/C(=N/Nc2ccc(C(F)(F)F)cc2)c2cc(C(C)(C)C)c(O)c(O)c2O1`
## Output 0.977

## Input Provide one value: measured normalized growth of `O=C(CCSc1cccs1)Nc1cccc(C(F)(F)F)c1`
## Output 0.919
